Kindly state IC50 for each of the entries shown.
# studyTarget: human TLR7 (Homo sapiens, UniProt Q9NYK1)
# Sequence (Q9NYK1 27-1049): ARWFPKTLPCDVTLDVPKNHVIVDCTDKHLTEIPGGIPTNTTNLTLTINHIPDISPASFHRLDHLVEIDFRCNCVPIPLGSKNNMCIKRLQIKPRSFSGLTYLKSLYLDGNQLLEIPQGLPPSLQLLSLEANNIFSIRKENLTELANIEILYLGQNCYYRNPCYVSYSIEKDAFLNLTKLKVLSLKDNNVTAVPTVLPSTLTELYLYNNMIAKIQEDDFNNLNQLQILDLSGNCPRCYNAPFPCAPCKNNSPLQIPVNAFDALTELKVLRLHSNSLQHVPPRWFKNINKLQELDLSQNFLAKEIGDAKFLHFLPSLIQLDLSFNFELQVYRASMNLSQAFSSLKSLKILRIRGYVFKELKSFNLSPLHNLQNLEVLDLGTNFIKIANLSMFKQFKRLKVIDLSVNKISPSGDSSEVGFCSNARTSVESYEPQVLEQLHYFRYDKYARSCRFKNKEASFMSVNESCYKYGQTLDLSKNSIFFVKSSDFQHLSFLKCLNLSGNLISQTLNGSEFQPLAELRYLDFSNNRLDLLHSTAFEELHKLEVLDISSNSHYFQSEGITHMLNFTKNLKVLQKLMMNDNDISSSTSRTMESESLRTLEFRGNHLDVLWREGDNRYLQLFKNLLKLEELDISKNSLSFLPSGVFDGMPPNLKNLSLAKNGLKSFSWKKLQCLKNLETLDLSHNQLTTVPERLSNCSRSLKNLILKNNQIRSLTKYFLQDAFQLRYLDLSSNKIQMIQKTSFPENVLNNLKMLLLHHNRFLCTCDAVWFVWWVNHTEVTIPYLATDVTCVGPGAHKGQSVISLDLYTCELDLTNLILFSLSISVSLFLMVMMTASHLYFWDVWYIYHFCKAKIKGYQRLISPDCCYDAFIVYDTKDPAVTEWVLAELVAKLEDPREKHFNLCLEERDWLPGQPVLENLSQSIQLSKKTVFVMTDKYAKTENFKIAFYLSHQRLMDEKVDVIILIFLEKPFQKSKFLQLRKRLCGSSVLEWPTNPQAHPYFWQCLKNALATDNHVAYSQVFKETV
# procedureSummary: HEK-Blue hTLR7 SEAP reporter gene inhibition assay
# Format: cell-based
# reportedConditions: HEK-Blue hTLR7 IC50 (µM)

Incoming: I would be grateful if you could share the reported IC50 for C[C@@H]1CN(c2ccc(C#N)n3ncc(F)c23)Cc2c3c(nn21)CN[C@H](CO)C3 .
Outgoing: < 0.05 µM

Incoming: I would be grateful if you could share the reported IC50 for C[C@@H]1CN(c2ccc(C#N)n3ncc(F)c23)Cc2c3c(nn21)CN(CCC#N)[C@@H](C)C3 .
Outgoing: < 0.05 µM

Incoming: I would be grateful if you could share the reported IC50 for C[C@@H]1CN(c2ccc(C#N)n3ncc(F)c23)Cc2c3c(nn21)CN(CC(=O)N1CC2(COC2)C1)[C@@H](C)C3 .
Outgoing: > 0.05 µM

---

# studyTarget: human TLR7 (Homo sapiens)
# procedureSummary: HEK-Blue hTLR7 SEAP reporter gene inhibition assay
# Format: cell-based
# reportedConditions: hTLR7 HEK-Blue cells, TLR7 ligand Gardiquimod 10 µM, 20 hours, SEAP by Quanti-blue; class symbols; read-out: HEK-Blue hTLR7 IC50
pIC50: −log10 of the molar value.
measuredQuantity: pIC50

Incoming: I would be grateful if you could share the reported pIC50 for C[C@@H]1CN(c2ccc(C#N)n3ncc(F)c23)Cc2c3c(nn21)CNC(C(C)(C)O)C3 (stereo partly drawn) .
Outgoing: < 7.30

Incoming: I would be grateful if you could share the reported pIC50 for C[C@@H]1CN(c2ccc(C#N)n3ncc(F)c23)Cc2c3c(nn21)CN(CC(C)(C)C(N)=O)[C@@H](C)C3 .
Outgoing: < 7.30

Incoming: I would be grateful if you could share the reported pIC50 for CC(C)N1CCc2c(nn3c2CN(c2ccc(C#N)n4ncc(F)c24)C[C@H]3C)C1 .
Outgoing: < 7.30

Incoming: I would be grateful if you could share the reported pIC50 for CC1Cc2nn3c(c2CN1)CN(c1ccc(C#N)n2ncc(F)c12)C[C@H]3C (stereo partly drawn) [Example I-11] .
Outgoing: > 7.30

Incoming: I would be grateful if you could share the reported pIC50 for C[C@@H]1CN(c2ccc(C#N)n3ncc(F)c23)Cc2c3c(nn21)C1CCC(C3)N1 (stereo partly drawn) .
Outgoing: > 7.30

Incoming: I would be grateful if you could share the reported pIC50 for C[C@@H]1CN(c2ccc(C#N)n3ncc(F)c23)Cc2c3c(nn21)CN(C(CO)CO)[C@@H](C)C3 .
Outgoing: < 7.30

Incoming: I would be grateful if you could share the reported pIC50 for CC1Cc2c(nn3c2CN(c2ccc(C#N)n4ncc(F)c24)C[C@H]3C)CN1 (stereo partly drawn) .
Outgoing: > 7.30

Incoming: I would be grateful if you could share the reported pIC50 for C[C@@H]1CN(c2ccc(C#N)n3ncc(F)c23)Cc2c3c(nn21)CC(N)CC3 (single isomer, unassigned) [Example I-20a] .
Outgoing: > 7.30

Incoming: I would be grateful if you could share the reported pIC50 for CC1Cc2nn3c(c2CN1)CN(c1ccc(C#N)n2ncc(F)c12)C[C@H]3C (single isomer, unassigned) [Example I-11b] .
Outgoing: > 7.30

Incoming: I would be grateful if you could share the reported pIC50 for CC1Cc2c(nn3c2CN(c2ccc(C#N)n4ncc(F)c24)C[C@H]3C)C(C)N1 (single isomer, unassigned) [Example I-88a] .
Outgoing: > 7.30

Incoming: I would be grateful if you could share the reported pIC50 for C[C@@H]1CN(c2ccc(C#N)n3ncc(F)c23)Cc2c3c(nn21)CCNC3 .
Outgoing: > 7.30

Incoming: I would be grateful if you could share the reported pIC50 for C[C@@H]1CN(c2ccc(C#N)n3ncc(F)c23)Cc2c3c(nn21)CN(Cc1ncco1)[C@@H](C)C3 .
Outgoing: < 7.30

Incoming: I would be grateful if you could share the reported pIC50 for C[C@@H]1CN(c2ccc(C#N)n3ncc(F)c23)Cc2c3c(nn21)CN(Cc1cn[nH]c1)[C@@H](C)C3 .
Outgoing: > 7.30

Incoming: I would be grateful if you could share the reported pIC50 for C[C@@H]1CN(c2ccc(C#N)n3ncc(F)c23)Cc2c3c(nn21)[C@@H](C)NCC3 .
Outgoing: > 7.30

Incoming: I would be grateful if you could share the reported pIC50 for C[C@@H]1CN(c2ccc(C#N)n3ncc(F)c23)Cc2c3c(nn21)CN(CC(=O)N1C[C@H](C)N[C@@H](C)C1)[C@@H](C)C3 .
Outgoing: > 7.30

Incoming: I would be grateful if you could share the reported pIC50 for C[C@@H]1CN(c2ccc(C#N)n3ncc(F)c23)Cc2c3c(nn21)CCN(C1CCC1)C3 .
Outgoing: < 7.30

Incoming: I would be grateful if you could share the reported pIC50 for CCN1CCc2nn3c(c2C1)CN(c1ccc(C#N)n2ncc(F)c12)C[C@H]3C .
Outgoing: > 7.30

Incoming: I would be grateful if you could share the reported pIC50 for CC1Cc2nn3c(c2CN1)CN(c1ccc(C#N)n2ncc(F)c12)C[C@H]3C (single isomer, unassigned) [Example I-11a] .
Outgoing: > 7.30

Incoming: I would be grateful if you could share the reported pIC50 for C[C@@H]1CN(c2ccc(C#N)n3ncc(F)c23)Cc2c3c(nn21)CN[C@@H](CO)C3 .
Outgoing: < 7.30

Incoming: I would be grateful if you could share the reported pIC50 for C[C@@H]1CN(c2ccc(C#N)n3ncc(F)c23)Cc2c3c(nn21)CNC(c1cnn(C)c1)C3 (stereo partly drawn) .
Outgoing: > 7.30

Incoming: I would be grateful if you could share the reported pIC50 for C[C@@H]1CN(c2ccc(C#N)n3ncc(F)c23)Cc2c3c(nn21)CN(C[C@H](O)CO)[C@@H](C)C3 .
Outgoing: < 7.30

Incoming: I would be grateful if you could share the reported pIC50 for C[C@H]1NCCc2c1nn1c2CN(c2ccc(C#N)n3ncc(F)c23)C[C@H]1CF .
Outgoing: > 7.30

Incoming: I would be grateful if you could share the reported pIC50 for COC[C@H]1Cc2c(nn3c2CN(c2ccc(C#N)n4ncc(F)c24)C[C@H]3C)CN1 .
Outgoing: > 7.30

Incoming: I would be grateful if you could share the reported pIC50 for C[C@@H]1CN(c2ccc(C#N)n3ncc(F)c23)Cc2c3c(nn21)CCN(Cc1cnn(C)c1)C3 .
Outgoing: < 7.30
